Below: a set of entries, each annotated with reported Max MFI.
testedTarget: T1, human GPC3 on CHO-K1-human GPC3 cells (clone CHOK1-hGPC3.2B5) (human, UniProt P51654 25-554)
T1 construct: whole, on cells; Stably transfected CHO-K1 clone 2B5
experimentNotes: FACS on CHOK1-hGPC3.2B5 cells;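 further: flow cytometry binding of chimeric antibodies to the cells, read out as mean fluorescence intensity, with the half-maximal concentration derived by curve fitting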
State just the number; it will be interpreted in MFI.

binder	assayEndpoint	result
F2.169.2 human-murine chimeric antibody (antibody, human IgG1, kappa, V domains shown) VH: EVQLVETGGGLVQPKGSLKLSCAASGFSFNTNAMNWVRQAPGKGLEWVARIRSKSNNYATYYADSVKDRFTISRDDSQSMLYLQMNNLKTEDTAMYYCVRDGYYVLFAYWGQGTLVTVSA VL: DVLMTQTPLSLPVSLGDQASISCRFSQSIVNSNGNTYLEWFLQKPGQSPKLLIYKVSNRFSGVPDRFSGSGSGTDFTLKISRVEAEDLGVYYCFQGSHVPFTFGTGTKLEIKR	Max MFI	17300

Next binder, Max MFI to be filled in.
State the recorded Max MFI for this entry: F1.3.9 human-murine chimeric antibody (antibody, human IgG1, kappa, V domains shown) VH: QVQLQQPGTELVKPGASVKLSCKASGYTFTSYWIHWVKQRPGQGLEWIGNINPPNAGTNYNEKFKSKATLTVDKSSSTAYMQLSSLTSEDSAVYYCARGRWLLHDYWGQGTTLTVSS VL: DIQMTQSPASLSISVGETVTITCRASENIYSNLAWYQQKQGKSPQLLVYGTKNLAEGVPSRFSGSGSGTQYSLKINSLQSEDFGNYYCQHFWGTPYTFGGGTKLEILR
3210
